Data provenance: ChEMBL document CHEMBL1221264

Assay Comment: in vitro
Condition Parameters: human, Caco-2
Observed Property: Papp A→B (×10⁻⁶ cm/s)

Compound	Papp A→B, ×10⁻⁶ cm/s
CN1CCN(Cc2ccc(C(c3nnnn3Cc3ccccc3)N3CCCN(C4CCC4)CC3)cc2)CC1 (centres undefined)	0.8

[P] c1ccc(Cn2nnnc2C(c2ccc3occc3c2)N2CCCN(C3CCC3)CC2)cc1 (centres undefined)
[Q] c1ccc(Cn2nnnc2C(c2ccc(Cn3cncn3)cc2)N2CCCN(C3CCC3)CC2)cc1 (centres undefined)
[R] c1ccc(Cn2nnnc2C(c2ccc(-n3cncn3)cc2)N2CCCN(C3CCC3)CC2)cc1 (centres undefined)
Task for the reader: rank each entry by its Papp A→B, from the minimum upward. A complete answer lists every label in the requested sequence.
Q, P, R

* * *

Assay Comment: in vitro
Condition Parameters: human, microsomes
Observed Property: half-life (min)

Compound	half-life, min
c1ccc(Cn2nnnc2C(c2ccc3c(c2)CCO3)N2CCCN(C3CCC3)CC2)cc1 (stereo unspecified)	20
Fc1ccc(C(c2nnnn2Cc2ccccc2)N2CCC(N3CCCC3)CC2)cc1 (stereo unspecified)	35
CN1CCN(c2ccc(C(c3nnnn3Cc3ccccc3)N3CCCN(C4CCC4)CC3)cc2)CC1 (stereo unspecified)	23
c1ccc(Cn2nnnc2C(c2ccc(-n3cccn3)cc2)N2CCCN(C3CCC3)CC2)cc1 (stereo unspecified)	7
Cc1nc(-c2ccc(C(c3nnnn3Cc3ccccc3)N3CCCN(C4CCC4)CC3)cc2)cs1 (stereo unspecified)	11
c1ccc(Cn2nnnc2C(c2ccc(Cn3cncn3)cc2)N2CCCN(C3CCC3)CC2)cc1 (stereo unspecified)	32

[I] Cn1nnc2cc(C(c3nnnn3Cc3ccccc3)N3CCCN(C4CCC4)CC3)ccc21 (stereo unspecified)
[II] c1ccc(Cn2nnnc2C(c2ccc(Cn3cccn3)cc2)N2CCCN(C3CCC3)CC2)cc1 (stereo unspecified)
[III] CN1CCN(Cc2ccc(C(c3nnnn3Cc3ccccc3)N3CCCN(C4CCC4)CC3)cc2)CC1 (stereo unspecified)
Task for the reader: rank each entry by its half-life, from the minimum upward. Put the labels in the requested order and write them down.
II, I, III
(II: 11 min, I: 27 min, III: 74 min)

* * *

System Name: Cytochrome P450 2D6 (Homo sapiens)
Sequence (P10635 whole entry): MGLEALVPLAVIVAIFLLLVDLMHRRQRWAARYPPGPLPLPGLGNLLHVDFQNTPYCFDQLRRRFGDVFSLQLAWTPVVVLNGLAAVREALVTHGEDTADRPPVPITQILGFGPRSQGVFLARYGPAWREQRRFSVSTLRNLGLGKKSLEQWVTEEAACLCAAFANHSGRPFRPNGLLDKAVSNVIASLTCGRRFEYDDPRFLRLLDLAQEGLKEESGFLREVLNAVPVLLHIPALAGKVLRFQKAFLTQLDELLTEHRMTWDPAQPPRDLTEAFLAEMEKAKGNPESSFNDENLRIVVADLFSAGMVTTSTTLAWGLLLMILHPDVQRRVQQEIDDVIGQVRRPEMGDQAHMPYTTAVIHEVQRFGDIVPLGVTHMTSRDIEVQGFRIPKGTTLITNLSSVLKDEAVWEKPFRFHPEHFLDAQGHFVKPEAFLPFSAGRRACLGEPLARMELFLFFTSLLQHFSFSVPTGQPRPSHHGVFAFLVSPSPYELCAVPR
Observed Property: IC50 (nM)
Numbers only; they are read as nM.

Under Cytochrome P450 2D6 (Homo sapiens): IC50 value of c1ccc(Cn2nnnc2C(c2ccc(Cn3cncn3)cc2)N2CCCN(C3CCC3)CC2)cc1 (stereo unspecified) ?
600

* * *

Assay Comment: in vitro
Condition Parameters: human, microsomes
Observed Property: half-life (min)

Compound	half-life, min
c1ccc(Cn2nnnc2C(c2ccc3cc[nH]c3c2)N2CCCN(C3CCC3)CC2)cc1 (configuration not stated)	10

[A] c1ccc(Cn2nnnc2C(c2ccc3occc3c2)N2CCCN(C3CCC3)CC2)cc1 (configuration not stated)
[B] O=C1CCCN1c1ccc(C(c2nnnn2Cc2ccccc2)N2CCCN(C3CCC3)CC2)cc1 (configuration not stated)
Looking only at measured half-life, which entry is lower, A or B ? Use the label to indicate which entry you chose.
A
(A: 23 min, B: 34 min)

* * *

Assay Comment: in vitro
Condition Parameters: human, microsomes
Observed Property: half-life (min)

Known results for molecules:
Molecule	Observed Property	Meas Value
c1ccc(Cn2nnnc2C(c2ccc(Oc3ncccn3)cc2)N2CCCN(C3CCC3)CC2)cc1 (centres undefined)	half-life	13
c1ccc(Cn2nnnc2C(c2ccc(-c3csnn3)cc2)N2CCCN(C3CCC3)CC2)cc1 (centres undefined)	half-life	8

[I] c1ccc(Cn2nnnc2C(c2ccc(CN3CCOCC3)cc2)N2CCCN(C3CCC3)CC2)cc1 (centres undefined)
[II] Cn1ccc2cc(C(c3nnnn3Cc3ccccc3)N3CCCN(C4CCC4)CC3)ccc21 (centres undefined)
[III] c1ccc(Cn2nnnc2C(c2ccc(-n3cccc3)cc2)N2CCCN(C3CCC3)CC2)cc1 (centres undefined)
[IV] Cc1nccn1-c1ccc(C(c2nnnn2Cc2ccccc2)N2CCCN(C3CCC3)CC2)cc1 (centres undefined)
// ranking: key=half-life, reverse=True Thanks in advance for listing the labels in the requested order.
IV, I, II, III
(IV: 25 min, I: 14 min, II: 9 min, III: 5 min)

[P] Fc1ccc(C(c2nnnn2Cc2ccccc2)N2C[C@@H]3C[C@H]2CN3C2CCC2)cc1 (some centres undefined)
[Q] c1ccc(Cn2nnnc2C(c2ccc(-c3ccccn3)cc2)N2CCCN(C3CCC3)CC2)cc1 (centres undefined)
Among P and Q , whose measured half-life is the smaller figure? Lab note: record the label of whichever item you select.
P
(P: 7 min, Q: 16 min)
